# Test system: CCRF-CEM
# TEST_DESCRIPTION: NCI tumour cell line growth inhibition, 48 h
Activity calls are given as the source filed them. Cut-off read from the data, not from the text of the source: active = GI50 up to about 1.1 µM and inactive = higher.
OUTCOME_MEASURE: GI50

MOLECULE: CC12CC3OC(=O)C1COC14OC5(C2C1=O)C(O)(CCC1C4CC(O)C2(O)CC=CC(=O)C12C)C(=O)OC35C (stereo not given)
SYSTEM_NAME: CCRF-CEM
OUTCOME_MEASURE: GI50
DATA_VALUE: > 100 µM (inactive)
--
MOLECULE: CNC(=O)NCCCC(NC(C)=O)C(=O)NCc1ccccc1 (stereo not given)
SYSTEM_NAME: CCRF-CEM
OUTCOME_MEASURE: GI50
DATA_VALUE: > 100 µM (inactive)
--
MOLECULE: NC1=CN(Cc2ccccc2)C2=N/C(=C\c3ccccc3O)C(=O)N12
SYSTEM_NAME: CCRF-CEM
OUTCOME_MEASURE: GI50
DATA_VALUE: 81.8 µM (inactive)
--
MOLECULE: CC(O)C(N/C=C1/N=C(c2ccccc2)OC1=O)C(=O)O (stereo not given)
SYSTEM_NAME: CCRF-CEM
OUTCOME_MEASURE: GI50
DATA_VALUE: > 100 µM (inactive)
--
MOLECULE: Brc1ccc2c(-c3csc(-c4c[nH]c5ccccc45)n3)c[nH]c2c1
SYSTEM_NAME: CCRF-CEM
OUTCOME_MEASURE: GI50
DATA_VALUE: 14.7 µM (inactive)
